Quick list: pKd per entry.
# experimental system: STAT1 (Homo sapiens)
# Construct: made in house; host or cells: HEK293 (transient transfection), unpurified extract
# Sequence (P42224 1-750): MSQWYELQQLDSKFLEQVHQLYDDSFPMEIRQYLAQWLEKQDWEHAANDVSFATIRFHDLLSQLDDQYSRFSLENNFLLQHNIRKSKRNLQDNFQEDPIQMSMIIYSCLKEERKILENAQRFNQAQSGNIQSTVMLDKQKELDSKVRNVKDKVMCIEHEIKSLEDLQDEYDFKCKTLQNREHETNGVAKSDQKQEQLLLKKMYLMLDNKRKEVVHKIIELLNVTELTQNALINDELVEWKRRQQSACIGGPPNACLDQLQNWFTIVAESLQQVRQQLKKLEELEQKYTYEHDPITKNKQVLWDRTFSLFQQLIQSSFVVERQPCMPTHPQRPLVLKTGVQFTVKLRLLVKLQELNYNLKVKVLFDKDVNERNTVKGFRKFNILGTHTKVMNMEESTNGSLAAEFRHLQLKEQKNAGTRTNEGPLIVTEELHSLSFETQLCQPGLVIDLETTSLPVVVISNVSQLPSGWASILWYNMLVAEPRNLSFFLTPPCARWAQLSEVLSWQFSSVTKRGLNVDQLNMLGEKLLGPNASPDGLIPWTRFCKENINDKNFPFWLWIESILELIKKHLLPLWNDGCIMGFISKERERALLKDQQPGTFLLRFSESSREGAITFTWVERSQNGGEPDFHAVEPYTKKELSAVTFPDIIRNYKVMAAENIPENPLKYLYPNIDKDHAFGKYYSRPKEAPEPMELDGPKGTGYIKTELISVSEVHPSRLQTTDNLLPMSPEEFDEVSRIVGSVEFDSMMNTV
# protocol notes: biochemical
# Assay type: binding
# assay conditions: dose-response; read-out: KD
pKd: −log10 of the molar value.

>  <smiles structure>
O=C(COc1ccc2cc(C(=O)Nc3ccccc3)ccc2c1)NCc1ccc(OP(=O)(O)O)c(OP(=O)(O)O)c1

>  <experimental system>
STAT1 (Homo sapiens)

>  <pKd>
4.43

$$$$
>  <smiles structure>
C/C(=C\C(=O)N[C@H](C(=O)N1CCC[C@H]1C(=O)N(c1ccccc1)c1ccc(I)cc1)C(C)(C)C)c1ccc(OP(=O)(O)O)cc1

>  <experimental system>
STAT1 (Homo sapiens)

>  <pKd>
6.48

$$$$
>  <smiles structure>
CC(C)(C)[C@H](NC(=O)/C=C/c1ccc(OP(=O)(O)O)cc1)C(=O)N1CCC[C@H]1C(=O)N(c1ccccc1)c1ccc(I)cc1

>  <experimental system>
STAT1 (Homo sapiens)

>  <pKd>
6.17

$$$$

* * *

# experimental system: STAT5A (Homo sapiens, UniProt P42229)
# Construct: made in house; host or cells: HEK293 (transient transfection), unpurified extract
# Sequence (P42229 whole entry): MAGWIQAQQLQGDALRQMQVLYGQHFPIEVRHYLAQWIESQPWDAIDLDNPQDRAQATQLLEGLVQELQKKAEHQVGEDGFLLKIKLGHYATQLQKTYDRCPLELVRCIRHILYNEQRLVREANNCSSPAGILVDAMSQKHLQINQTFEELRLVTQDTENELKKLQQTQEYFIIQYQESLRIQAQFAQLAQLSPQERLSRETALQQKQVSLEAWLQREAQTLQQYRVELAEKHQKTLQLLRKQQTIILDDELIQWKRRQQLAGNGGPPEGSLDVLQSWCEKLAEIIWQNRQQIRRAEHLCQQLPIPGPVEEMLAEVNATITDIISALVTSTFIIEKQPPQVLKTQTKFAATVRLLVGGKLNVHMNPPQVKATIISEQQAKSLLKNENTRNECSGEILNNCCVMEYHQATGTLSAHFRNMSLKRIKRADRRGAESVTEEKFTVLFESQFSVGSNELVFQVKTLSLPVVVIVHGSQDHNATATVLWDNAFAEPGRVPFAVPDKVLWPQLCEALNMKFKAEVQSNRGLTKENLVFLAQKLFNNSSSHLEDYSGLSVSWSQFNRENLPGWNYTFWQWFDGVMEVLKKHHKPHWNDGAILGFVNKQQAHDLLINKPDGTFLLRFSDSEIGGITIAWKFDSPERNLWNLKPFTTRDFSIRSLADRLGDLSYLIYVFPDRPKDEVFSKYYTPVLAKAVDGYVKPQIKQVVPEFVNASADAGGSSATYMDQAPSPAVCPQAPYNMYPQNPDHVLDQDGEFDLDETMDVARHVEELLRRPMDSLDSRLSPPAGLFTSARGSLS
# protocol notes: biochemical
# Type: binding
# assay conditions: dose-response; read-out: KD
pKd: −log10 of the molar value.

>  <compound>
C/C(=C\C(=O)N[C@H](C(=O)N1CCC[C@H]1C(=O)N(c1ccccc1)c1ccc(I)cc1)C(C)(C)C)c1ccc(OP(=O)(O)O)cc1 [STAT6-IN-1]

>  <pKd>
8.04

$$$$
>  <compound>
CC(C)(C)[C@H](NC(=O)/C=C/c1ccc(OP(=O)(O)O)cc1)C(=O)N1CCC[C@H]1C(=O)N(c1ccccc1)c1ccc(I)cc1 [STAT6-IN-3]

>  <pKd>
7.34

$$$$

* * *

Quick reference for remaining activity at 10 µM among some compounds
# experimental system: PTPN6(SH2dom.N-term.) (Homo sapiens, UniProt P29350)
# Construct: SH2dom.N-term. denotes SH2 domain closest to N-terminus of protein; made in house; host or cells: HEK293 (transient transfection, unpurified extract)
# Sequence (P29350 4-100 limits assumed): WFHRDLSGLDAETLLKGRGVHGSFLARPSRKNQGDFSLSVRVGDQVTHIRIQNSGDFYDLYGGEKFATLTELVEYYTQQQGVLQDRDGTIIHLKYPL
# protocol notes: biochemical
# Type: binding
# assay conditions: primary screen, 10 μM; read-out: percent of DMSO vehicle control

>  <smiles structure>
CC(C)(C)[C@H](NC(=O)/C=C/c1ccc(OP(=O)(O)O)cc1)C(=O)N1CCC[C@H]1C(=O)N(c1ccccc1)c1ccc(I)cc1

>  <remaining activity at 10 µM>
77.4%

$$$$
>  <smiles structure>
C/C(=C\C(=O)N[C@H](C(=O)N1CCC[C@H]1C(=O)N(c1ccccc1)c1ccc(I)cc1)C(C)(C)C)c1ccc(OP(=O)(O)O)cc1

>  <remaining activity at 10 µM>
69.7%

$$$$
>  <smiles structure>
O=C(CCl)Nc1cccc(CNC(=O)[C@H](Cc2ccc(OP(=O)(O)O)cc2)NC(=O)Cc2ccc(F)cc2)c1

>  <remaining activity at 10 µM>
102%

$$$$
>  <smiles structure>
O=C(COc1ccc2cc(C(=O)Nc3ccccc3)ccc2c1)NCc1ccc(OP(=O)(O)O)c(OP(=O)(O)O)c1

>  <remaining activity at 10 µM>
27.8%

$$$$

* * *

# experimental system: ABL1 (Homo sapiens)
# Construct: the DNA-tagged SH2 domain concentrations used in this study were <0.1 nM; made in house; host or cells: HEK293 (transient transfection; unpurified extract)
# Sequence (P00519 127-217 limits assumed): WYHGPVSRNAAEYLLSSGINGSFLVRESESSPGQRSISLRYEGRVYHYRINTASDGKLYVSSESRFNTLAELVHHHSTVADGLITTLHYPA
# protocol notes: biochemical
# Assay type: binding
# assay conditions: read-out: percent of DMSO vehicle control
Non-standard residues stand in square brackets, D forms with d. Residues, ends and D or L forms follow the SMILES beside them. *: point of attachment. pY = N[C@@H](Cc1ccc(OP(=O)(O)O)cc1)C(=O)O; Caffeoyl = O=C(/C=C/c1ccc(O)c(O)c1)*
Here, each record is paired with measured percent of DMSO control binding at 10 µM data.

>  <compound>
CC(=O)N1CC[C@H]2CC[C@@H](C(=O)N[C@@H](CCC(N)=O)C(=O)NC(c3ccccc3)c3ccccc3)N2C(=O)[C@@H](NC(=O)c2cc3cc(C(F)(F)P(=O)(O)O)ccc3[nH]2)C1

>  <endpoint unit>
%

>  <percent of DMSO control binding at 10 µM>
132

$$$$
>  <compound>
CC[C@H](C)[C@H](NC(=O)[C@H](CCC(=O)O)NC(=O)[C@H](CCC(=O)O)NC(=O)[C@H](Cc1ccc(OP(=O)(O)O)cc1)NC(=O)/C=C/c1ccc(O)c(O)c1)C(=O)N[C@@H](CCC(=O)O)C(=O)O [Caffeic acid-pYEEIE] (Caffeoyl-[pY]EEIE-OH)

>  <endpoint unit>
%

>  <percent of DMSO control binding at 10 µM>
0

$$$$
>  <compound>
NC(=O)CC[C@H](NC(=O)[C@@H]1CC[C@@H]2CCN(C(=O)CCCCCC#Cc3cccc4c3CN(C3CCC(=O)NC3=O)C4=O)C[C@H](NC(=O)c3cc4cc(C(F)(F)P(=O)(O)O)ccc4[nH]3)C(=O)N21)C(=O)NC(c1ccccc1)c1ccccc1 (stereo partly shown)

>  <endpoint unit>
%

>  <percent of DMSO control binding at 10 µM>
87.4

$$$$
>  <compound>
CC(=O)N[C@@H](Cc1ccc(CP(=O)(O)O)cc1)C(=O)NC1(C(=O)N[C@@H](CC(N)=O)C(=O)NCCCc2c(O)ccc3ccccc23)CCCCC1

>  <endpoint unit>
%

>  <percent of DMSO control binding at 10 µM>
3.1

$$$$

* * *

# experimental system: BRK (Homo sapiens, UniProt Q13882)
# Construct: the DNA-tagged SH2 domain concentrations used in this study were <0.1 nM; made in house; host or cells: HEK293 (transient transfection; unpurified extract)
# Sequence (Q13882 78-170 limits assumed): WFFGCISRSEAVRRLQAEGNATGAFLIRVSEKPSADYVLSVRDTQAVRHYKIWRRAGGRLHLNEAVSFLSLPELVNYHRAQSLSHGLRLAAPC
# protocol notes: biochemical
# Type: binding
# assay conditions: read-out: percent of DMSO vehicle control
Non-standard residues stand in square brackets, D forms with d. Residues, ends and D or L forms follow the SMILES beside them. *: point of attachment. pY = N[C@@H](Cc1ccc(OP(=O)(O)O)cc1)C(=O)O; Caffeoyl = O=C(/C=C/c1ccc(O)c(O)c1)*
Each entry below carries its recorded remaining activity at 10 µM.
measured attribute: remaining activity at 10 µM (%)

>  <compound>
CC(=O)N1CC[C@H]2CC[C@@H](C(=O)N[C@@H](CCC(N)=O)C(=O)NC(c3ccccc3)c3ccccc3)N2C(=O)[C@@H](NC(=O)c2cc3cc(C(F)(F)P(=O)(O)O)ccc3[nH]2)C1

>  <readout number>
124

$$$$
>  <compound>
CC[C@H](C)[C@H](NC(=O)[C@H](CCC(=O)O)NC(=O)[C@H](CCC(=O)O)NC(=O)[C@H](Cc1ccc(OP(=O)(O)O)cc1)NC(=O)/C=C/c1ccc(O)c(O)c1)C(=O)N[C@@H](CCC(=O)O)C(=O)O [Caffeic acid-pYEEIE] (Caffeoyl-[pY]EEIE-OH)

>  <readout number>
0

$$$$
>  <compound>
CC(=O)N[C@@H](Cc1ccc(CP(=O)(O)O)cc1)C(=O)NC1(C(=O)N[C@@H](CC(N)=O)C(=O)NCCCc2c(O)ccc3ccccc23)CCCCC1

>  <readout number>
117

$$$$
>  <compound>
NC(=O)CC[C@H](NC(=O)[C@@H]1CC[C@@H]2CCN(C(=O)CCCCCC#Cc3cccc4c3CN(C3CCC(=O)NC3=O)C4=O)C[C@H](NC(=O)c3cc4cc(C(F)(F)P(=O)(O)O)ccc4[nH]3)C(=O)N21)C(=O)NC(c1ccccc1)c1ccccc1 (stereo partly shown)

>  <readout number>
76.9

$$$$
